target: Hexokinase (Trypanosoma brucei); test: Confirmation assay for inhibitors of Trypanosoma brucei hexokinase 1-Analogue-first series. [Related pubchem assays (depositor defined):AID1430, AID1632, AID2516, AID2560, AID2579, AID2600, AID449725, AID492951]; type: functional
Sequence (Q38C41 whole entry): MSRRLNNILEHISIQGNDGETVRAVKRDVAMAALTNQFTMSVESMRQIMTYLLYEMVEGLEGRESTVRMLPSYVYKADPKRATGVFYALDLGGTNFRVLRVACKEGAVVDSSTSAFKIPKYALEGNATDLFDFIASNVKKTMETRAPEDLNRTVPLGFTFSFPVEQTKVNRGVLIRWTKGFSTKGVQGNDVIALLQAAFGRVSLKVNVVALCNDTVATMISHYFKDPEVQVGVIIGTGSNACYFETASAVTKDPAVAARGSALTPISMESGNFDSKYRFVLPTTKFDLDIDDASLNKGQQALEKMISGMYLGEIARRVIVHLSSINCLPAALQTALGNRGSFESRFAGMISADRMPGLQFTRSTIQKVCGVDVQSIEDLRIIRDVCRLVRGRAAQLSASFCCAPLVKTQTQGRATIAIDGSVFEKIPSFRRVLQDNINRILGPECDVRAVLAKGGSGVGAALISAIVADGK
Active and inactive are the calls of the source.
// allowed return values: active, inactive

Recorded results for 5 compounds are shown here.
>>> category_label("O=c1c2ccccc2sn1-c1ccccc1F")
"active"
>>> category_label("COc1ccc(NC(=O)c2ccccc2SCc2ccccc2)cc1")
"inactive"
>>> category_label("COc1ccc2c(c1)CN(c1cc(Cl)ccc1C(=O)O)C2=O")
"inactive"
>>> category_label("COc1ccc(C(=O)Nc2cc(Cl)ccc2-c2nnn[nH]2)cc1")
"active"
>>> category_label("COc1ccc(C(=O)Nc2cc(Br)ccc2C(=O)O)cc1")
"active"

Proceed to the following item.
**Query** What did this assay record as the result for O=C(Nc1cc(Cl)ccc1C(=O)O)c1cocn1 ?
**Result** inactive

###

target: Melanocortin receptor 4 (Homo sapiens, UniProt P32245); test: MC4R antagonist potency on cAMP, dose response, cell-based, TR-FRET, biased antagonists (AID 602298); format: functional;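 further: antagonist potency against agonist-stimulated cAMP production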
Sequence (P32245 whole entry): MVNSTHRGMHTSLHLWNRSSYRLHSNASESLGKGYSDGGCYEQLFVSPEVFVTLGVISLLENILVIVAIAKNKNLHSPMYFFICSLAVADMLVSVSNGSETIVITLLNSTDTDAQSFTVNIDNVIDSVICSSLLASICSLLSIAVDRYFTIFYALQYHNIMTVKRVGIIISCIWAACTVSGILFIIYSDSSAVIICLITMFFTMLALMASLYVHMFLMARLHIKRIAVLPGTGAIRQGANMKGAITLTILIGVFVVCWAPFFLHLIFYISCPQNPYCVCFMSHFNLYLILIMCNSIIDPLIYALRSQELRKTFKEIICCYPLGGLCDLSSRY
Active and inactive are the calls of the source.
// allowed return values: class 1 = active, class 0 = inactive

Recorded results for 4 compounds are shown here.
>>> category_label("COC(=O)c1c(NC(=O)CC2SCC(C(=O)OC)NC2=O)sc2c1CCCC2 (stereo not given)")
"class 0"
>>> category_label("COc1cccc2[nH]c3c(Cl)ncnc3c12")
"class 0"
>>> category_label("COc1ccc(-n2c(SC3CCOC3=O)nc3ccccc32)cc1 (stereo not given)")
"class 0"
>>> category_label("CCOc1ccc2c(ccc(/C=C/c3cc(C)c4cccnc4c3O)[n+]2C)c1")
"class 1"

Proceed to the following item.
**Query** What did this assay record as the result for CC(=O)n1cc(N(C(=O)CCl)c2ccc(C)cc2)c2ccccc21 ?
**Result** class 0

###

test: cells; format: functional
Activity calls are given as the source filed them.
quantity_measured: IC50

>>> experimental_value("C=CCn1c(C)cc(C2=NN=C(NCc3ccccc3)SC2)c1C")
"10.8 µM (active)"

Give IC50 for each of the items listed below.
1. Oc1ccccc1CN1CCCC(N2CCN(c3cccc(C(F)(F)F)c3)CC2)C1 (centres undefined)
2. CCS(=O)(=O)c1ncc(Cl)c(C(=O)Nc2ccc(S(=O)(=O)N(C)c3ccccc3)cc2)n1
3. COc1cc(/C=C2/C(=O)NN(c3cccc(C)c3)C2=O)ccc1OC(=O)c1ccco1

**Result**
["22.9 µM (active)", "> 50 µM (active)", "19.9 µM (active)"]

###

I'd appreciate it if you could supply EC50 values for the items below.
assay: cytotoxicity toward NIH3T3 fibroblasts, dose response, counter-screen, cell-based, ATP luminescence, mouse fibroblasts (AID 2010); type: functional;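 further: cells exposed to compound for about 90 hours before reading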
Activity calls are given as the source filed them.

>>> experimental_value("CCOc1ccccc1NC(=O)C(=O)N/N=C/c1cc(Br)ccc1O")
"> 60 µM (not active)"
>>> experimental_value("O=C(Nc1ccccc1N1CCN(C(=O)c2ccc(Cl)cc2)CC1)c1cccc([N+](=O)[O-])c1")
"> 60 µM (not active)"
>>> experimental_value("CCn1nc(C)c(CN2CCCC(CO)(Cc3cccc(Cl)c3)C2)c1C (centres undefined)")
"> 30 µM (not active)"

# input for lookup
Consider COc1ccccc1C(NC(C)=O)c1cc(Cl)c2cccnc2c1O (centres undefined) . Its measured EC50 is 2.85 µM (active)

###

molecular target: UniProtKB Q8IL11; experiment: P. falciparum M17LAP inhibitors, primary screen, biochemical, fluorogenic H-Leu-NHMec substrate, 1536-well (AID 1619); type: functional
Sequence (Q8IL11 whole entry): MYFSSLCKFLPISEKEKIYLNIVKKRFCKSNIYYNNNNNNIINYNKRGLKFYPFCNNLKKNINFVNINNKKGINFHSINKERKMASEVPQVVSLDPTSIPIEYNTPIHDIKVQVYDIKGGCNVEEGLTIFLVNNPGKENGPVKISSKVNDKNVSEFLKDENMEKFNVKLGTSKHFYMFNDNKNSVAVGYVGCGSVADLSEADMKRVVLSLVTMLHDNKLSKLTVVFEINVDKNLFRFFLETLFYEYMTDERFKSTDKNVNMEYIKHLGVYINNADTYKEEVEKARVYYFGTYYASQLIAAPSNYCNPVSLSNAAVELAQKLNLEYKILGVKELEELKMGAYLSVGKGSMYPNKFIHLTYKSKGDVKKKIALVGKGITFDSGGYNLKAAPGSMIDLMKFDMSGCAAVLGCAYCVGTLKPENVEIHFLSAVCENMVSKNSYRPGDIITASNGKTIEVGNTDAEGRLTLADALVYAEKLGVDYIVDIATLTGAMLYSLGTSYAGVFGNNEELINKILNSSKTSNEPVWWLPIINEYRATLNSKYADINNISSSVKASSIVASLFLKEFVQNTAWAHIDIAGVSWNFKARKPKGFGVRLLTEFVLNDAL
Calls of active or inactive are those of the source.
quantity_measured: IC50

>>> experimental_value("Cc1cc(O)nc(SCC(=O)Nc2ccc(F)cc2)c1C#N")
"4.1 µM (active)"
>>> experimental_value("O=C(Cc1ccsc1-c1ccccc1)NO")
"43.4 µM (active)"
>>> experimental_value("O=C(O)c1cc(/C=N\\O)ccc1OCc1ccccc1")
"16.4 µM (active)"
>>> experimental_value("COc1cc(/C(C)=N/NC(=O)Cc2c(C)n[nH]c2O)ccc1O")
"34.1 µM (active)"
>>> experimental_value("COc1ccc2sc(N3C(=O)C4CC=C(C)CC4C3=O)nc2c1 (stereo unspecified)")
"35 µM (active)"

# input for lookup
Consider CCOc1ccc(Nc2nc(Cc3nnc(SCC(=O)NCc4ccco4)n3CC)cs2)cc1 . Its measured IC50 is 28.1 µM (active)

###

target: Heat shock factor protein 1 (Mus musculus); experiment: HSF1 potentiators in luciferase reporter cells, confirmation, cell-based, NIH3T3, luminescence, dose retest (AID 435004); assay type: functional;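 further: stress induced by proteasome inhibitor MG132 added 30 min after compound; luciferase reporter driven by HSF1 response element in NIH3T3 cells; actives raise luminescence as potentiators of the MG132 stress response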
Sequence (P38532 whole entry): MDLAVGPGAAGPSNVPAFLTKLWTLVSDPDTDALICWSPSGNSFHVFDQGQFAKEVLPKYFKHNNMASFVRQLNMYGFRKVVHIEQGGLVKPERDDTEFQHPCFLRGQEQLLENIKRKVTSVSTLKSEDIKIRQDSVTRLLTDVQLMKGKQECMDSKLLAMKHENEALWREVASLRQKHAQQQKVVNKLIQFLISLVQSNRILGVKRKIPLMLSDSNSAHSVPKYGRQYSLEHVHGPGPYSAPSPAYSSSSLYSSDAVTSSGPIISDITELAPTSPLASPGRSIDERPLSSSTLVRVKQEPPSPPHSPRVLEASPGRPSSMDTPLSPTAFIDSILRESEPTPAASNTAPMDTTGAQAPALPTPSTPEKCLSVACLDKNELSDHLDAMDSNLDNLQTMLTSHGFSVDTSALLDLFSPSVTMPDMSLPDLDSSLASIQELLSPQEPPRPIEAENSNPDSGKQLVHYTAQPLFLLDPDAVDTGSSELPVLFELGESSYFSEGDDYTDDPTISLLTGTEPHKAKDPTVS
The source made the active and inactive calls.
// allowed return values: active, inactive

Recorded results for 5 molecules are shown here.
>>> category_label("Cc1cc(=O)oc2c(C)c(OC(C)C(=O)NCC(O)c3ccccc3)ccc12 (stereo not given)")
"inactive"
>>> category_label("CC(C)N(Cc1ccccc1)C(=O)COC(=O)/C=C/c1cnc2ccccc2n1")
"active"
>>> category_label("CCOC(=O)/C=C/C(=O)OCC(=O)NC(c1ccccc1)c1ccccc1")
"active"
>>> category_label("O=C(CSc1nnc(-c2ccccc2)c(-c2ccccc2)n1)N1CCc2ccccc21")
"inactive"
>>> category_label("SC1=Nc2ccc(Cl)cc2C(c2ccccc2)=NC1")
"inactive"

**Query** What did this assay record as the result for O=C(Nc1ccccc1N1CCN(C(=O)c2ccc(Cl)cc2)CC1)c1cccc([N+](=O)[O-])c1 ?
**Result** inactive

**Query** What did this assay record as the result for Cc1cc(/C=C(/C#N)c2cccc(Cl)c2)c(C)n1C ?
**Result** inactive

**Query** What did this assay record as the result for O=[N+]([O-])c1cc([N+](=O)[O-])c(N2CCOCC2)cc1NCc1ccccc1 ?
**Result** inactive

**Query** What did this assay record as the result for c1ccc2c(c1)nnn1c3ccccc3nc21 ?
**Result** inactive

**Query** What did this assay record as the result for CCN(CC)S(=O)(=O)c1ccc(C(=O)NN(C)C2=NS(=O)(=O)c3ccccc32)cc1 ?
**Result** inactive

###

biological target: Beta-galactosidase (Escherichia coli, UniProt Q8VNN2); assay: PubChem AID 485352; assay type: functional
Sequence (Q8VNN2 whole entry): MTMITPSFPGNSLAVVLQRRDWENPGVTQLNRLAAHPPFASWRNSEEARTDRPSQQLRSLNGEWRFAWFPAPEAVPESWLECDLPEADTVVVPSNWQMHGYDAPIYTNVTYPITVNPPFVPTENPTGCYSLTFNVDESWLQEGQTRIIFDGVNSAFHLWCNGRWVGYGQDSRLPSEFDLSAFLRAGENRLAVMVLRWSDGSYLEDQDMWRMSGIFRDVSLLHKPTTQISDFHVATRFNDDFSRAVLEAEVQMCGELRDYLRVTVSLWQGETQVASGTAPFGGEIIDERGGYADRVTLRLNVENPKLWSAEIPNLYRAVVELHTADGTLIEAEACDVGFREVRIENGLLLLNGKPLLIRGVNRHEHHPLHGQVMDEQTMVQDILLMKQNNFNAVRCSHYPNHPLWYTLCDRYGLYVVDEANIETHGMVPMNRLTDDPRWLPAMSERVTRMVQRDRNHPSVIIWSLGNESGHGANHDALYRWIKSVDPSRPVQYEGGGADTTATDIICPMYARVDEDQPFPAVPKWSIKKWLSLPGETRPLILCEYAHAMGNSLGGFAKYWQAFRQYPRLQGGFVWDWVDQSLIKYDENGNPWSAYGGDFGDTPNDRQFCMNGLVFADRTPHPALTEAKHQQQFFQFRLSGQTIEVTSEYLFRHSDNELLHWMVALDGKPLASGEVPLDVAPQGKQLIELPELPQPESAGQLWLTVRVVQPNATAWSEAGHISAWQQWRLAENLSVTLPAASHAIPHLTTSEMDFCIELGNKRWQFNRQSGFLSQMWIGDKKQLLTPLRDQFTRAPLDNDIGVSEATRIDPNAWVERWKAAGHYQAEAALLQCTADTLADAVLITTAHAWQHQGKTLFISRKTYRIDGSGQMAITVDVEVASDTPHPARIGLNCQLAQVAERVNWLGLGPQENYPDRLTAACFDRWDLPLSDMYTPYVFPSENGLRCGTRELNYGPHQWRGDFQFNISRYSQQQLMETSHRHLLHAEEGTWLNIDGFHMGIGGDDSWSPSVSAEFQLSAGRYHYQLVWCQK
Activity calls are given as the source filed them.
// allowed return values: active, inactive

>>> category_label("COc1cc(/C=C/[N+](=O)[O-])ccc1OC(=O)c1cccnc1")
"inactive"
>>> category_label("CCS(=O)(=O)c1ncc(Cl)c(C(=O)Nc2ccc(S(=O)(=O)N(C)c3ccccc3)cc2)n1")
"inactive"
>>> category_label("Cc1nn(CCC(=O)NNC(S)=NCC(C)C)c(C)c1Br")
"active"

**Query** What did this assay record as the result for COc1cc(NS(=O)(=O)c2ccc(NC(=S)NC(=O)C3CCCC3)cc2)nc(OC)n1 ?
**Result** inactive

###

Biological target: High affinity choline transporter 1 (Homo sapiens, UniProt Q9GZV3)
Sequence (Q9GZV3 whole entry): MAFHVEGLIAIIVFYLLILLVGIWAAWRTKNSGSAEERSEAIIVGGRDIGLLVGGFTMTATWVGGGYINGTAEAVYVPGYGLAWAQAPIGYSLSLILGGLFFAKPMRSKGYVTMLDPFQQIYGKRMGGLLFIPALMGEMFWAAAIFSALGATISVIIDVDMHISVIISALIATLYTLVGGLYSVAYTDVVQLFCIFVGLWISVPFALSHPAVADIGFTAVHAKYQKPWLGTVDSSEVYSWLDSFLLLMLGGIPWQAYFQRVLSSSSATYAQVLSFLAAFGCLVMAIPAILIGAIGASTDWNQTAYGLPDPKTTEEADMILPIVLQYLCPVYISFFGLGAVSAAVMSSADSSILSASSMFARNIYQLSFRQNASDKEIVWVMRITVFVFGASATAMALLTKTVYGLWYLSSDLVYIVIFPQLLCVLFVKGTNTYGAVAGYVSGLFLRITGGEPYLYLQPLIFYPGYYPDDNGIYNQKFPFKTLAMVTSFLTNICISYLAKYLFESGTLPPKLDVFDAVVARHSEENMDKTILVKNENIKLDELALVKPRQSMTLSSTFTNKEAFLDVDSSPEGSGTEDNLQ
Assay: CHT inhibitors, dose response, cell-based, 5-point CRC, membrane potential dye (AID 504840)
Assay type: functional
Active and inactive are the calls of the source.
quantity_measured: IC50

Solved cases below.
>>> experimental_value("CCN1CCN(c2cc(C)c3cc(NC(=S)N4CCCCC4)ccc3n2)CC1")
"12.6 µM (active)"
>>> experimental_value("CCN(CC)CCCNC(=O)c1cn(CC)c2ccc(S(=O)(=O)N3CCc4ccccc4C3)cc2c1=O")
"4.17 µM (active)"
>>> experimental_value("Cc1ncoc1C(=O)Nc1ccc(Oc2ccccc2)cc1")
"13.2 µM (active)"
>>> experimental_value("Cc1ccc(OCCSC2=NN2c2cc(C)nc(N)n2)cc1")
"14.8 µM (active)"
>>> experimental_value("CCN(CC)CCCNC(=O)c1ccccc1NC(=O)C1=CSCCO1")
"4.48 µM (active)"

# input for lookup
Consider CCCN(CCC)c1nc(O)nc(N(CCC)CCC)n1 . Its measured IC50 is 3.63 µM (active)
